- TARGET SYSTEM: Matriptase (Homo sapiens)
- Sequence (Q9Y5Y6 whole entry, species assumed): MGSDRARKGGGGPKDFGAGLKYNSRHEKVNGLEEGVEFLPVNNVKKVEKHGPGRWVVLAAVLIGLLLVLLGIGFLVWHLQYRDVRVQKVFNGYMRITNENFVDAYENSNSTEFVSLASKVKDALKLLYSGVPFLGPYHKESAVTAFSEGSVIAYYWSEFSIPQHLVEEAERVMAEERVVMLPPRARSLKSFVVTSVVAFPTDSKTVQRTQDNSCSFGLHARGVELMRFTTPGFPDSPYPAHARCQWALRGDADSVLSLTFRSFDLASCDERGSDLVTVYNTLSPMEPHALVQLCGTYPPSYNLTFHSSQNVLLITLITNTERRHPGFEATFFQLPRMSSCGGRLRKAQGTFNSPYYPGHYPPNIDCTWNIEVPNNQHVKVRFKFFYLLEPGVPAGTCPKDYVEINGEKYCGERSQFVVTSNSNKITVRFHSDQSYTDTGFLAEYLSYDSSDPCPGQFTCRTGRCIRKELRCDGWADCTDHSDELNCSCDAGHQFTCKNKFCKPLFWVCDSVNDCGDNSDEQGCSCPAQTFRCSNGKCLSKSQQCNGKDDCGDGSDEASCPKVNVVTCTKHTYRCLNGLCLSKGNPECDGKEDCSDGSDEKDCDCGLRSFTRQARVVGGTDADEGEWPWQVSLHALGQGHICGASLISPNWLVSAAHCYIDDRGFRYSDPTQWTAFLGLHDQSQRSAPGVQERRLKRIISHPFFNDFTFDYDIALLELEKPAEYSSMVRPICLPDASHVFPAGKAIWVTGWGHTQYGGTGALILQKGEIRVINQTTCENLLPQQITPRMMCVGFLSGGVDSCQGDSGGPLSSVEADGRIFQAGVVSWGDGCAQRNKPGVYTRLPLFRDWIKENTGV
- TEST PROTOCOL: Matriptase inhibition
- Format: biochemical
ENDPOINT LABEL: IC50

Worked set:
CSCCOC(=O)NC(c1ccc(NC(=N)N)cc1)P(=O)(Oc1ccccc1)Oc1ccccc1 (stereo not shown) [Compound 108]: 2500 to 10000 nM
N=C(N)Nc1ccc(C(NC(=O)OCc2c(F)c(F)c(F)c(F)c2F)P(=O)(Oc2ccccc2)Oc2ccccc2)cc1 (stereo not shown) [Compound 109]: 1000 to 2500 nM
C#CCOCCOCCOC(=O)NC(c1ccc(NC(=N)N)cc1)P(=O)(Oc1ccccc1)Oc1ccccc1.O=C(O)C(F)(F)F (stereo not shown) [Compound 27, 2,2,2-trifluoroacetate]: 2500 to 10000 nM

Now take the following molecule into account.
Look at this molecule and give its reported IC50. CCCCCC(=O)NCCOC(=O)NC(c1ccc(NC(=N)N)cc1)P(=O)(Oc1ccccc1)Oc1ccccc1 (stereo not shown) [Compound 31]
2500 to 10000 nM

Data origin: patent US10017527B2
